- EXPERIMENT_SUMMARY: Cmax in C57BL/6 mouse liver at 5 mg/kg, po
- Format: ADME, organism-based
- Set-up: dose 5 mg/kg, route oral
PARAMETER: Cmax
Include the unit right after the number.

Find the recorded Cmax belonging to CCC[C@@H](CCO)Nc1nc(N)nc2c1CN(C(=O)c1csc(C)n1)CC2 and report it.
711 ng/g

* * *

- EXPERIMENT_SUMMARY: Protein binding in mouse plasma
- Type: ADME, cell-free
- TEST_PARAMETERS: read-out: PPB (converted)
PARAMETER: fraction unbound

Find the recorded fraction unbound belonging to CCC[C@@H](CCO)Nc1nc(N)nc2c1CN(C(=O)c1csc(C)n1)CC2 and report it.
0.7

Origin of the recorded values: ChEMBL document CHEMBL4265889
